// provenance: ChEMBL document CHEMBL2034880

test: Cmax in Sprague-Dawley rat at 5 mg/kg, po; assay type: ADME, organism-based; parameters: dose 5 mg/kg, route oral; conditions: in vivo
Experimental Endpoint: Cmax (ng/mL)

> print(dat)
                           structure.string  value.measured
1  C=CC(=O)NCc1coc(-c2c(N)ncnc2Nc2ccc(OCc3ccccn3)c(Cl)c2)n1.Cl             189

---

assay: Half life in Sprague-Dawley rat at 5 mg/kg, po; format: ADME, organism-based; set-up: dose 5 mg/kg, route oral; details: in vivo
Experimental Endpoint: half-life (h)

> print(dat)
                           structure.string  experimental.endpoint  value.measured
1  C=CC(=O)NCc1coc(-c2c(N)ncnc2Nc2ccc(OCc3ccccn3)c(Cl)c2)n1.Cl              half-life            3.23

---

molecular target: Tyrosine-protein kinase JAK2 (Homo sapiens, UniProt O60674)
Sequence (O60674 whole entry): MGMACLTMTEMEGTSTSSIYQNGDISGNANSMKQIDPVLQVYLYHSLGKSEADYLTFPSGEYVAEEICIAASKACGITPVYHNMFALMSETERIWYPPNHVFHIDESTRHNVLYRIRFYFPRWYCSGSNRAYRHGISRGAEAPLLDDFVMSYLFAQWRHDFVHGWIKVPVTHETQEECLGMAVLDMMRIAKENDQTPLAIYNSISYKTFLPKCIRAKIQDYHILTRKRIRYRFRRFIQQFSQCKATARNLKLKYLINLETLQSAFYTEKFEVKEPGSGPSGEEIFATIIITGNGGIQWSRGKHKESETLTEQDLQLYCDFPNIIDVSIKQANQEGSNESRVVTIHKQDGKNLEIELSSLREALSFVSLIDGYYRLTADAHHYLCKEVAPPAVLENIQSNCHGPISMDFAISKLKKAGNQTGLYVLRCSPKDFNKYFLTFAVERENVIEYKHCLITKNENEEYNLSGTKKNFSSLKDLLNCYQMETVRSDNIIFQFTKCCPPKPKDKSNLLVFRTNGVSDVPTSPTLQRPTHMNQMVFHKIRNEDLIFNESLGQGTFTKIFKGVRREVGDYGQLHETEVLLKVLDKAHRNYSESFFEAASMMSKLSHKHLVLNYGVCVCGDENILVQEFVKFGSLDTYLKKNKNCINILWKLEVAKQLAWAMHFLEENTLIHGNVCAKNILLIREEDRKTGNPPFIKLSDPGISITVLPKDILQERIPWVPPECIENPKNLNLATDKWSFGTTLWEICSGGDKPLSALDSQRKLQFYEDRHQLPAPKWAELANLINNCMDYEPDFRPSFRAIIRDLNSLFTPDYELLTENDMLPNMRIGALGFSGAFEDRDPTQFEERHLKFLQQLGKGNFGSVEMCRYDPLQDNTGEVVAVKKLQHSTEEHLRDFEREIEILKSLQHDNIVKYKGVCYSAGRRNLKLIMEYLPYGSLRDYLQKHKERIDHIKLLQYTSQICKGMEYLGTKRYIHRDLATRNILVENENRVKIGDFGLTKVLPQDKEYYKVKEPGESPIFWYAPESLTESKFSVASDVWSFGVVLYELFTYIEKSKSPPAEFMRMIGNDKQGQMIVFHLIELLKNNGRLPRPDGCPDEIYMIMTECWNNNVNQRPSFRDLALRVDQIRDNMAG
Experimental Endpoint: IC50

> print(dat)
                           structure.string  experimental.endpoint  value.measured
1  C=CC(=O)NCc1coc(-c2c(N)ncnc2Nc2ccc(OCc3ccccn3)c(Cl)c2)n1                   IC50          > 3 µM

---

biological target: 5'-AMP-activated protein kinase catalytic subunit alpha-1 (Homo sapiens); assay: Inhibition of AMPKalpha1
Sequence (Q13131 whole entry): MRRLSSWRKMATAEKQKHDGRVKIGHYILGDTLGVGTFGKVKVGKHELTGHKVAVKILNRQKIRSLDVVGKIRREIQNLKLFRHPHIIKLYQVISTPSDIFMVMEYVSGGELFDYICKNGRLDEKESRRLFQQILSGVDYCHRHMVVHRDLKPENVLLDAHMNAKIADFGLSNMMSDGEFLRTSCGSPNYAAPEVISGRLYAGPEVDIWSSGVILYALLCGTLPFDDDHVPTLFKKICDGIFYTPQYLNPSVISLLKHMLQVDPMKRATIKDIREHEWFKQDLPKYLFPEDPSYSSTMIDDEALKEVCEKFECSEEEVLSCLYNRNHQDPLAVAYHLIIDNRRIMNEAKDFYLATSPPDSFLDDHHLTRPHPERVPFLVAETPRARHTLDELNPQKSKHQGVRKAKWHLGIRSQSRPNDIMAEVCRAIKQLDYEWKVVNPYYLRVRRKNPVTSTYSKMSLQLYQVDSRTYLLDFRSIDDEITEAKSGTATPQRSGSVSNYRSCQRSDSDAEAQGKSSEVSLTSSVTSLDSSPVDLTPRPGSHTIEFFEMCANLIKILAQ
Experimental Endpoint: IC50

> print(dat)
                           structure.string  value.measured
1  C=CC(=O)NCc1coc(-c2c(N)ncnc2Nc2ccc(OCc3ccccn3)c(Cl)c2)n1          > 3 µM

---

biological target: Fibroblast growth factor receptor 1 (Homo sapiens)
Sequence (P11362 whole entry): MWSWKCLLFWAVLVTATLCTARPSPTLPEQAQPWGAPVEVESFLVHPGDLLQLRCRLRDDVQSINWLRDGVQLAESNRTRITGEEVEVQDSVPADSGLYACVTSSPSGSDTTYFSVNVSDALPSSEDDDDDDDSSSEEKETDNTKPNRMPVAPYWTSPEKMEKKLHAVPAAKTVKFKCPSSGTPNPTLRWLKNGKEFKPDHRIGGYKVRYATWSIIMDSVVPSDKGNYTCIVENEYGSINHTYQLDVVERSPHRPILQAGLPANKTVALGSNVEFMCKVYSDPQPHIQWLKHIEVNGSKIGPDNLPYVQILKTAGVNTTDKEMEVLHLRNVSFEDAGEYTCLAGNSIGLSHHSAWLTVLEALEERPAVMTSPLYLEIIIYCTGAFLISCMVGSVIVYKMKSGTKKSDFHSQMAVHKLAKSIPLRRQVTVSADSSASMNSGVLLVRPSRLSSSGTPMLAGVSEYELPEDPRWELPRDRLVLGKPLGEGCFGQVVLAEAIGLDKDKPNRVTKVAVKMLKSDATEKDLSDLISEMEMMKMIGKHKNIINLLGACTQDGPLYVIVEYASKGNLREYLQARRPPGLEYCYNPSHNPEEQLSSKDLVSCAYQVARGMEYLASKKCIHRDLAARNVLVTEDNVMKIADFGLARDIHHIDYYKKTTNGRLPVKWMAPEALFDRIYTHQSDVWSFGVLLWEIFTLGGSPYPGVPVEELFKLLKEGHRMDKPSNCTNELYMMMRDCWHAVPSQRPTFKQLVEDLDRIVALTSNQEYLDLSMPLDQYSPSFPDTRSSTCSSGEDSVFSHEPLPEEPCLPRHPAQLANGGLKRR
pIC50: −log10 of the molar value.
Experimental Endpoint: pIC50

> print(dat)
                           structure.string  value.measured
1  C=CC(=O)NCc1coc(-c2c(N)ncnc2Nc2ccc(OCc3ccccn3)c(Cl)c2)n1          < 5.52

---

target: Hepatocyte growth factor receptor (Homo sapiens)
Sequence (P08581 whole entry): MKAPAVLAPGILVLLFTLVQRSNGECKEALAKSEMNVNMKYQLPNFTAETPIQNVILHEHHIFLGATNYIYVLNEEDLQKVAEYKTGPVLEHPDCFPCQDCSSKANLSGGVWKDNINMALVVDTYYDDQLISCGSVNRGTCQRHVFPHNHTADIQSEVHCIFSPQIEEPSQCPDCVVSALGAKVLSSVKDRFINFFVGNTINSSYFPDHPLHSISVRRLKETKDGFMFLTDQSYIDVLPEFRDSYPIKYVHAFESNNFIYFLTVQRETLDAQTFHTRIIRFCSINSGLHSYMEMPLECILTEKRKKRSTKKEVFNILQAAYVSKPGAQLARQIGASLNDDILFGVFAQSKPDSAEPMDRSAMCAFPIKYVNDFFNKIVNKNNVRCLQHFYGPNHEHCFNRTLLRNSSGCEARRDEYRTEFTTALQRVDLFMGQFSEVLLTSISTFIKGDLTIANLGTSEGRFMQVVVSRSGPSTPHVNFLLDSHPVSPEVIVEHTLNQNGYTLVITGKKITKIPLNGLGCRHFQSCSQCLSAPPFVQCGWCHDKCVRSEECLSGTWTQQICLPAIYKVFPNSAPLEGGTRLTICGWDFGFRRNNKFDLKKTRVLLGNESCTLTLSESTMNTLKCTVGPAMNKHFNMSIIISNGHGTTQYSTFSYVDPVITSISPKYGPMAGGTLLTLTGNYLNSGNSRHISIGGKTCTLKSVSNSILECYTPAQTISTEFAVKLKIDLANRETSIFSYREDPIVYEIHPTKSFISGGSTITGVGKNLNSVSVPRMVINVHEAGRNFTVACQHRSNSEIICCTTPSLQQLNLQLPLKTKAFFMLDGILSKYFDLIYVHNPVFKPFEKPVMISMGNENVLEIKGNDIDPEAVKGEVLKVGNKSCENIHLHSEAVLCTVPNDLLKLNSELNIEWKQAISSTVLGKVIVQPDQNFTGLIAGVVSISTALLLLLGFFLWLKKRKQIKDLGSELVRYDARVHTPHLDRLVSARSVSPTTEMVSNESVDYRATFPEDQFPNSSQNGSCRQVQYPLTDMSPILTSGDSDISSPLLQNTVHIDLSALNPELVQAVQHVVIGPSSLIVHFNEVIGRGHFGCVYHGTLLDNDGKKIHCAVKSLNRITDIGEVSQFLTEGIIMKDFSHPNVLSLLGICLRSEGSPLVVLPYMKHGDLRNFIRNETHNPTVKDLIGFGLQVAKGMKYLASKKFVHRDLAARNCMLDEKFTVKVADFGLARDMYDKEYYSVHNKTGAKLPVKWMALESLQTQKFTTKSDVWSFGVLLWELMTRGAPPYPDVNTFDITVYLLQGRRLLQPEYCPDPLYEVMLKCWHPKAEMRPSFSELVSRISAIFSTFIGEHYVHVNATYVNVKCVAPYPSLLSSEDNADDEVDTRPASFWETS
Experimental Endpoint: IC50

> print(dat)
                           structure.string                             tested.system  experimental.endpoint  value.measured
1  C=CC(=O)NCc1coc(-c2c(N)ncnc2Nc2ccc(OCc3ccccn3)c(Cl)c2)n1  Hepatocyte growth factor receptor (Homo sapiens)                   IC50          > 3 µM

---

This listing pairs molecules with measured pIC50.
assay: Cytotoxicity against human JIMT1 cells expressing low HER-2 after 72 hrs by SRB assay; format: functional, cell-based; conditions: JIMT-1, 72 h
pIC50: −log10 of the molar value.
Experimental Endpoint: pIC50

> print(dat)
                           structure.string  value.modifier  value.measured
1  CS(=O)(=O)CCNCc1ccc(-c2ccc3ncnc(Nc4ccc(OCc5cccc(F)c5)c(Cl)c4)c3c2)o1               <            5.00
2  C=CC(=O)NCc1coc(-c2c(N)ncnc2Nc2ccc(OCc3ccccn3)c(Cl)c2)n1               =            5.73

---

target: Receptor-type tyrosine-protein kinase FLT3 (Homo sapiens, UniProt P36888)
Sequence (P36888 whole entry): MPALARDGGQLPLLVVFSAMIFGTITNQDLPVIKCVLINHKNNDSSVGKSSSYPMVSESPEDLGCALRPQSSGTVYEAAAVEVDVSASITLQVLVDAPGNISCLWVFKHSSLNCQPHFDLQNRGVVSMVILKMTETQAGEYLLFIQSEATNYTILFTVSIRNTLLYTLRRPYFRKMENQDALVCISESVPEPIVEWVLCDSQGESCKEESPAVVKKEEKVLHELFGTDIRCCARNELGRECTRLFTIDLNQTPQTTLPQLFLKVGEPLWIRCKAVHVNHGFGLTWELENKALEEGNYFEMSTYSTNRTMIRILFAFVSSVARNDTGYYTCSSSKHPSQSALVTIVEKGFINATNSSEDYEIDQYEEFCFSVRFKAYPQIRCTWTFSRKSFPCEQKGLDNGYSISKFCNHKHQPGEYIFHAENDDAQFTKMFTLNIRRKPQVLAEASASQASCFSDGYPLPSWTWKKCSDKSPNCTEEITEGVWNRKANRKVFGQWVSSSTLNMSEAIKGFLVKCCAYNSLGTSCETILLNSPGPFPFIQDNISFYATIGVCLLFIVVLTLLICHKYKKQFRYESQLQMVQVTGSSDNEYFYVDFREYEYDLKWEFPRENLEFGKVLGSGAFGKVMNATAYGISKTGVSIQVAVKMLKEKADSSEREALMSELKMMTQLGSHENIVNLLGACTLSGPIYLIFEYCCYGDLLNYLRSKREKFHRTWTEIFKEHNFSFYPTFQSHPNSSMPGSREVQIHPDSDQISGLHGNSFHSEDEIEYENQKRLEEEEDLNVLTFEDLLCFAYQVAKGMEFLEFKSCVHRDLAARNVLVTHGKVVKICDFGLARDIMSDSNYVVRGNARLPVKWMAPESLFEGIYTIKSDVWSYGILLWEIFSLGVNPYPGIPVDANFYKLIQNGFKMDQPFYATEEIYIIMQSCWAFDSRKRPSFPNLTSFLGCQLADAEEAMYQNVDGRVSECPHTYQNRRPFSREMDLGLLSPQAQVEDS
Experimental Endpoint: IC50

> print(dat)
                           structure.string                             tested.system  value.measured
1  C=CC(=O)NCc1coc(-c2c(N)ncnc2Nc2ccc(OCc3ccccn3)c(Cl)c2)n1  Receptor-type tyrosine-protein kinase FLT3 (Homo sapiens, UniProt P36888)          > 3 µM
